target: KRAS G12C/SOS/c-Raf complex (Homo sapiens, UniProt P01116, G12C); construct: Biotinylated AviTag-KRAS G12C (amino acid region 1-185, GDP); assay: KRAS G12C/SOS/c-Raf complex formation inhibitory action (TR-FRET); settings: one hour at room temperature, read-out: IC50 (KRAS G12C/SOS/c-Raf complex formation inhibition)
Sequence (P01116 1-185 isoform P01116-2 G12C, one chain of several): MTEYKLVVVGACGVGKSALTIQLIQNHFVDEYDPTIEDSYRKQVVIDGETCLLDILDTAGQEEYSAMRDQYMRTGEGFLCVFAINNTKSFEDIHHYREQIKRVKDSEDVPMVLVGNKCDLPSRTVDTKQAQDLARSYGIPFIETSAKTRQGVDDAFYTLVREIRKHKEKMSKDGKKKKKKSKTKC
For each record, check the reported IC50: if it is below 40 nM write 1.0, else write 0.0.

Answered cases to consult:
Molecule: C=CC(=O)N1CC2(CCN(c3nc(OC4CCN(CC(C)(C)O)CC4)nc4c(OCC(F)(F)F)c(-c5c(C)ccc6[nH]ncc56)c(C=C)cc34)CC2)C1 [Example 40]
Classification: 1.0
--
Molecule: C=CC(=O)N1CC2(CCN(c3nc(OC4CCN(CCOCC)CC4)nc4c(OCC(F)(F)F)c(-c5c(C)ccc6[nH]ncc56)c(C=C)cc34)CC2)C1 [Example 29]
Classification: 0.0
--
Molecule: C=CC(=O)N1CC2(CCN(c3nc(OC[C@@H]4CCCN4C)nc4c(OCC)c(-c5c(C)ccc6[nH]ncc56)c(C=C)cc34)CC2)C1 [Example 16]
Classification: 0.0
--
Molecule: C=CC(=O)N1CC2(CCN(c3nc(OC4CCN(CC)CC4)nc4c(OC5CCC5)c(-c5c(C)ccc6[nH]ncc56)c(C5CC5)cc34)CC2)C1 [Example 19]
Classification: 0.0
--
Molecule: C=CC(=O)N1CC2(CCN(c3nc(OC4CCN(C(C)C)CC4)nc4c(OCC)c(-c5c(C)ccc6[nH]ncc56)c(C=C)cc34)CC2)C1 [Example 12]
Classification: 1.0

Next item in the queue.
Record C=CC(=O)N1CC2(CCN(c3nc(N4CCN(C)C(CC)C4)nc4c(OCC(F)(F)F)c(-c5c(C)ccc6[nH]ncc56)c(C=C)cc34)CC2)C1 (stereo not shown) [Example 89] : is its IC50 strictly below 40 nM?
0.0
